Measured values drawn from ChEMBL document CHEMBL5528015 for this set.

test: Metabolic stability in mouse liver microsomes assessed as intrinsic clearance at 1 uM measured upto 60 mins in presence of NADPH regenerating system by LC-MS/MS analysis; format: ADME, Microsome; settings: read-out: CLH
quantityKind: microsomal CLint at 1 µM (µL/min/mg)
Form entry: value (µL/min/mg) — number only.

Could you tell me which microsomal CLint at 1 µM is on file for Cc1ccc(OCCN)cc1C(=O)N[C@H](C)c1cccc(-c2ccc(O)cc2)c1 ?
24

Record: Cc1ccc(OCCN)cc1C(=O)N[C@H](C)c1cccc(-c2ccsc2)c1
11.8

Record: C[C@H](c1cccc2ccccc12)N(C)Cc1ccc(O)cc1
779
